# PROTOCOL TEXT: Caspase-3/7 induction in HepG2 cells by small molecules, qHTS assay (AID 1346978); note: nearly all actives have a fitted effect of over 15% in size
# REPORTED CONDITIONS: HepG2 caspase-3/7 activation, Caspase-Glo luminescence, 17 h; series mostly up to 92.4 µM
Records with an inconclusive call do not appear. Activity calls are given as the source filed them. Calls come from the whole dose curve; as a rule, active = well fitted activation curve with a large enough effect in the repeat runs; inconclusive = weak or mixed curves; inactive = flat fitted curve, though single readings scatter.
READOUT LABEL: outcome

MOLECULE: O=C(O)CCC(=O)O
outcome: inactive
//
MOLECULE: O=C(O)C(=O)O
outcome: inactive
//
MOLECULE: CCCN(CCC)S(=O)(=O)c1ccc(C(=O)O)cc1
outcome: inactive
//
MOLECULE: Cc1cc(=O)[nH]c(=S)[nH]1
outcome: inactive
//
MOLECULE: CC(C)(Oc1ccc(C2CC2(Cl)Cl)cc1)C(=O)O (stereo not given)
outcome: inactive
//
MOLECULE: O=C(O)CCCCCCCC(=O)O
outcome: inactive

Give me outcome for each of these molecules, listed below.
1. CC(O)C(=O)O (stereo not given)
2. O=c1ccc2ccccc2o1
3. O=C(O)c1cccc([N+](=O)[O-])c1
4. CC(=O)NS(=O)(=O)c1ccc(N)cc1
5. CC(=O)Nc1nnc(S(N)(=O)=O)s1
6. OCCc1ccccc1

1: inactive; 2: inactive; 3: inactive; 4: inactive; 5: inactive; 6: inactive

Below is a list of molecules. For each, state its recorded outcome.
1. CCCNC(=O)NS(=O)(=O)c1ccc(Cl)cc1
2. Cc1ccc(S(=O)(=O)NC(=O)NN2CCCCCC2)cc1
3. O=C(c1ccccc1)c1ccccc1

1. inactive
2. inactive
3. inactive
